- experiment.summary: NCI Yeast Anticancer Drug Screen. Data for the cln2 rad14 strain (AID 165);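 also: 0% = growth equal to vehicle treated cultures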
- experimental.setup: S. cerevisiae cln2 rad14 strain, at 50.0 µM
Compounds without any hit were thinned out: in the full panel of roughly 79,000, 15% have a hit. Active and inactive are the calls of the source. Rule as the data show it: active = growth inhibition above about 70%; inactive = the rest.
Outcomes: TRUE (active), FALSE (inactive)

>  <compound>
COCC(=O)c1ccccc1-c1ccccc1

>  <group>
FALSE

$$$$
>  <compound>
O=C(NC(=O)c1c(F)cccc1F)Nc1ccc(C(O)(C(F)(F)F)C(F)(F)F)cc1

>  <group>
FALSE

$$$$
>  <compound>
CCNCc1cc(Nc2nc(NC3CCC(N(C)C)CC3)c3ccccc3n2)ccc1OC (stereo unspecified)

>  <group>
FALSE

$$$$
>  <compound>
CSC1C(OC(=O)c2ccccc2)C(COC(=O)c2ccccc2)OC1n1cnc2ncnc(NC(=O)c3ccccc3)c21 (stereo unspecified)

>  <group>
FALSE

$$$$
>  <compound>
Clc1cc(Cl)nc(Nc2ccc3c(c2)CCC3)n1

>  <group>
FALSE

$$$$
>  <compound>
CCC(CC)COC(=O)CC(C)=O

>  <group>
TRUE

$$$$
>  <compound>
O=C1NNC2(C(=O)N1)c1ccccc1-c1ccccc12

>  <group>
FALSE

$$$$
>  <compound>
CCCCCCCCOC(=O)CO

>  <group>
FALSE

$$$$
>  <compound>
CC(=O)C1=C(c2ccccc2)N(C2OC(CO)C(O)C(O)C2O)C(S)=C(C#N)C1c1ccc(Cl)cc1 (stereo unspecified)

>  <group>
FALSE

$$$$
>  <compound>
CN(C)c1cc(N(C)C)c2cc(C#N)ccc2n1

>  <group>
FALSE

$$$$
>  <compound>
C[N+](C)(C)CCOC(=O)C(c1ccccc1)C1(O)CCCC1 (stereo unspecified)

>  <group>
FALSE

$$$$

====

Examples of compounds with documented growth inhibition follow.
- experiment.summary: NCI Yeast Anticancer Drug Screen. Data for the cln2 rad14 strain (AID 165);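 also: 0% = growth equal to vehicle treated cultures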
- experimental.setup: S. cerevisiae cln2 rad14 strain, at 50.0 µM, hits give high values
About 79,000 compounds went through this panel and 15% of them were active in at least one assay; those are over-represented in the sample as a whole.

>  <compound>
CCCCOC(=O)c1c2nc3c(C(=O)OCCCC)ccc(C)c3oc-2c(C)c(=O)c1NC(C)=O

>  <growth inhibition / %>
4.9

$$$$
>  <compound>
Nc1cc(=O)n(Cc2ccco2)c(=S)[nH]1

>  <growth inhibition / %>
2.75

$$$$
>  <compound>
Cc1ccc(N2C(=O)CC3(CCCC3)C2=O)cc1Cl

>  <growth inhibition / %>
5.95

$$$$
>  <compound>
Cc1cc(Cl)ccc1NC(=O)Nc1c(Oc2ccc(Cl)cc2)ccc(Cl)c1S(=O)(=O)O

>  <growth inhibition / %>
3.85

$$$$
>  <compound>
COc1ccc(N2C(=O)CCC2=O)cc1

>  <growth inhibition / %>
-6.15

$$$$
>  <compound>
CC(=O)c1cccc(OCC(O)CN2CCN(c3ccc(C)cc3)CC2)c1 (configuration not stated)

>  <growth inhibition / %>
-8.9

$$$$
>  <compound>
C/C=C/C1OC(OC)(OC)C1(OC)OC (configuration not stated)

>  <growth inhibition / %>
3.25

$$$$
>  <compound>
COc1cc(NCCCCCNC(C)C)c2nccc(C)c2c1

>  <growth inhibition / %>
28.6

$$$$
>  <compound>
O=C(OC(=O)c1ccc(Cl)cc1)c1ccc(Cl)cc1

>  <growth inhibition / %>
-8.15

$$$$
>  <compound>
O=C(O)C1CC2CC2C1 (configuration not stated)

>  <growth inhibition / %>
9.9

$$$$
>  <compound>
S=C(N/N=C1\CSCc2ccccc21)Nc1cc(Cl)ccc1Cl

>  <growth inhibition / %>
10.2

$$$$
>  <compound>
Nc1nnc(-c2ccc(Nc3nc4ccccc4[nH]3)c([N+](=O)[O-])c2)s1

>  <growth inhibition / %>
15.3

$$$$

====

- experiment.summary: NCI Yeast Anticancer Drug Screen. Data for the rad50 strain (AID 155);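 also: 0% = growth of vehicle-only cultures of the same strain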
- experimental.setup: S. cerevisiae rad50 strain growth inhibition; at 50.0 µM; hits give high values
- Procedure: Growth inhibition of yeast strains with defined genetic alterations is measured as a screen for potential anti-cancer activity. Selected strains with alterations in DNA damage repair or cell cycle control were exposed to compounds and growth inhibition was measured relative to vehicle treated controls. The strain used in this assay is rad50
This is part of a sample that, as a whole, favours compounds with a hit. Of some 79,000 tested, about 15% had one in any assay.
Measured growth inhibition, listed per entry.

>  <compound>
NC(=O)Nc1cccc(C(=O)O)c1C(=O)O

>  <result.units>
%

>  <growth inhibition>
-29.4

$$$$
>  <compound>
CCNCC(=O)Nc1ccccc1C(=O)OCC

>  <result.units>
%

>  <growth inhibition>
-2.7

$$$$
>  <compound>
O=C(NN1C(=O)CS(=O)(=O)C1c1ccccc1F)c1ccncc1 (configuration not stated)

>  <result.units>
%

>  <growth inhibition>
-8

$$$$
>  <compound>
C/C(=C\c1ccccc1)C(O)C(=O)c1nc2ccc([N+](=O)[O-])cc2[nH]c1=O (configuration not stated)

>  <result.units>
%

>  <growth inhibition>
-5.55

$$$$
>  <compound>
C/C=C/C(=O)OCCOc1ccccc1-c1ccccc1

>  <result.units>
%

>  <growth inhibition>
15.5

$$$$
>  <compound>
Nc1nc(-c2ccccn2)cc(-c2cc(-c3ccccn3)nc(N)n2)n1

>  <result.units>
%

>  <growth inhibition>
-12.1

$$$$
>  <compound>
COC(OC)C1OC(C)(C)OC1C(OS(=O)(=O)c1ccc(C)cc1)C1COC(C)(C)O1 (configuration not stated)

>  <result.units>
%

>  <growth inhibition>
-14.7

$$$$
>  <compound>
CCc1nc(-c2ccccc2)nc2c1nc(-c1cccc(C)c1)n2Nc1ccccc1

>  <result.units>
%

>  <growth inhibition>
1.45

$$$$
>  <compound>
CCCC[N+](C)(CCCC)CCCC

>  <result.units>
%

>  <growth inhibition>
9.15

$$$$
>  <compound>
C=CCOc1ccc(N)c([N+](=O)[O-])c1

>  <result.units>
%

>  <growth inhibition>
42.1

$$$$
>  <compound>
CC(=O)CC(=O)N1CCC(C)CC1

>  <result.units>
%

>  <growth inhibition>
20.4

$$$$
>  <compound>
CCCOC(=O)c1ccc(Cl)c(Cl)c1

>  <result.units>
%

>  <growth inhibition>
10.6

$$$$
>  <compound>
NCCN1CCOCC1

>  <result.units>
%

>  <growth inhibition>
7.95

$$$$
>  <compound>
COc1nsc2ccc(C(C)C(N)=O)cc12 (configuration not stated)

>  <result.units>
%

>  <growth inhibition>
-35.5

$$$$
>  <compound>
NC(N)=NC(N)=Nc1ccc(C(=O)O)cc1

>  <result.units>
%

>  <growth inhibition>
-7.4

$$$$
>  <compound>
O=[S@@]1Nc2cc(Cl)c(Cl)cc2S1

>  <result.units>
%

>  <growth inhibition>
9.6

$$$$
>  <compound>
CC(C)(C)[Si](C)(C)OCC1OC(n2cnc3c(N)ncnc32)C(O)C1O (configuration not stated)

>  <result.units>
%

>  <growth inhibition>
-12.4

$$$$
>  <compound>
CSC(=NC(=O)c1c(Cl)cccc1Cl)SC

>  <result.units>
%

>  <growth inhibition>
21.8

$$$$
>  <compound>
CC(=O)Nc1ccc(F)c([N+](=O)[O-])c1

>  <result.units>
%

>  <growth inhibition>
-6.45

$$$$
>  <compound>
CC(CO)(CO)[N+](=O)[O-]

>  <result.units>
%

>  <growth inhibition>
19.2

$$$$
>  <compound>
COc1cc(Cl)ccc1C

>  <result.units>
%

>  <growth inhibition>
-1.2

$$$$
>  <compound>
CCNC(=O)OC1C=CS(=O)(=O)C1 (configuration not stated)

>  <result.units>
%

>  <growth inhibition>
5.25

$$$$
>  <compound>
CCC(=O)Oc1ccc(OCc2ccccc2)cc1

>  <result.units>
%

>  <growth inhibition>
-28.3

$$$$
>  <compound>
CCOC(=C[P+](c1ccccc1)(c1ccccc1)c1ccccc1)OCC

>  <result.units>
%

>  <growth inhibition>
-6.5

$$$$
>  <compound>
COc1ccccc1C1CCCCC1SCC(=O)O (configuration not stated)

>  <result.units>
%

>  <growth inhibition>
19.4

$$$$
>  <compound>
CN=C(NC#N)NCc1ccccc1

>  <result.units>
%

>  <growth inhibition>
7.05

$$$$
>  <compound>
CCCOC(C)OCCC#CCC(C)OC(=O)CC(Cl)(Cl)Cl (configuration not stated)

>  <result.units>
%

>  <growth inhibition>
-13.8

$$$$

====

- experiment.summary: NCI Yeast Anticancer Drug Screen. Data for the mec2-1 strain (AID 157)
- experimental.setup: S. cerevisiae mec2-1 strain, at 50.0 µM, hits give high values
About 79,000 compounds went through this panel and 15% of them were active in at least one assay; those are over-represented in the sample as a whole.
endpoint.label: growth inhibition (%)

>  <compound>
N#Cc1nc(Nc2cccc3ccccc23)sc1N

>  <endpoint.label>
growth inhibition

>  <endpoint.value>
14.8

$$$$
>  <compound>
COc1nc(C(O)C2OC(C)(C)OCC2O)[nH]c1C#N (configuration not stated)

>  <endpoint.label>
growth inhibition

>  <endpoint.value>
7

$$$$
>  <compound>
COc1cc2cnc3c4ccccc4ccc3c2cc1OC

>  <endpoint.label>
growth inhibition

>  <endpoint.value>
-18.1

$$$$
>  <compound>
Cc1cc(C)c(C(=O)O)c(C)c1Br

>  <endpoint.label>
growth inhibition

>  <endpoint.value>
-27.4

$$$$
>  <compound>
O=C(CN1C(=O)c2ccccc2C1=O)OC1C=CCCC1 (configuration not stated)

>  <endpoint.label>
growth inhibition

>  <endpoint.value>
0.65

$$$$
>  <compound>
CNCCCc1cc(-c2ccc([N+](=O)[O-])cc2)n[nH]1

>  <endpoint.label>
growth inhibition

>  <endpoint.value>
0.5

$$$$
>  <compound>
CCN(CC)CCOC(=O)c1ccc(NC(=O)OCCC(C)OC(=O)Nc2ccc(C(=O)OCCN(CC)CC)cc2)cc1 (configuration not stated)

>  <endpoint.label>
growth inhibition

>  <endpoint.value>
1.2

$$$$

The reported measurements were obtained from PubChem BioAssay (NCI).
